# System: HMLE_sh_eGFP viability, CellTiter-Glo luminescence, 72 h
# assay_details: cytotoxicity in HMLE control line with eGFP shRNA, dose response, counter-screen for HMLE_sh_ECad selective toxicity project, cell-based, HMLE_sh_eGFP, luminescence (AID 463074);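 also: counterscreen control line to flag general toxicity for the HMLE_sh_ECad screen; potency for loss of viability as luminescence drops below DMSO wells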
Active and inactive are the calls of the source.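 The calls were made as follows: active = AC50 no more than tenfold above the top dose tested, or full inhibition at every dose with a flat fit (cut at about 19 µM in these data); inconclusive = flat curve fit with inhibition between 30% and 70%, or poor fit; inactive = AC50 more than tenfold above the top dose tested.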
Quick reference: AC50 of the listed items.

# molecule, AC50
rows = [
    ("O=C(N/N=C/c1cc(Cl)ccc1O)C(=O)Nc1ccccc1OC(F)(F)C(F)F", "3.9 µM"),
    ("CC(C)(C)c1ccc(O)c(O)c1", "13.3 µM"),
    ("Cc1cc(C2(c3ccc(O)c(C)c3)C(=O)Nc3ccccc32)ccc1O", "7.1 µM"),
    ("C/C(=N\\NC(N)=S)c1cc(-c2ccccc2)c(-c2ccccc2)s1", "3.94 µM"),
    ("Clc1ccc(CO/N=C/c2c(-c3ccccc3)nc3n2CCS3)c(Cl)c1", "4.62 µM"),
    ("Cc1nc(NC(=O)CC(C)C)sc1-c1csc(Nc2ccc(Cl)cc2Cl)n1", "2.38 µM"),
    ("CSc1nc(C)cc(OCC(=O)N/N=C/c2ccccc2O)n1", "11 µM"),
    ("Cc1ccc(C(=O)C(C(=O)/C=C/c2ccccc2)=C2SCCCS2)cc1", "1.56 µM"),
    ("CCc1cc2ccc(C)cc2nc1SCC(=O)c1ccc(NC(C)=O)cc1", "9.7 µM"),
    ("Cc1ccc(C(=O)NC2c3ccccc3-c3ccccc32)cc1", "0.816 µM"),
    ("Cc1nn(-c2ccccc2)c(N2CCCCC2)c1/C=N/O", "1.69 µM"),
    ("Cc1oc2c(c1C(=O)N1CCC(C)CC1)C(=O)c1ccccc1C2=O", "7.99 µM"),
    ("CSc1nc2ccccc2cc1/C=C(\\C#N)c1cccc(Cl)c1", "2.73 µM"),
    ("COc1ccc(-n2cc(-c3ccccc3)c3c(N4CCOCC4)ncnc32)cc1", "6.91 µM"),
    ("COc1ccc(-c2sc3ccc(OC)cc3c2C#Cc2ccccn2)cc1", "5.88 µM"),
    ("O=C1c2c(Br)c(Br)c(Br)c(Br)c2C(=O)N1c1ccccn1", "3.65 µM"),
    ("COc1ccccc1NC(=O)c1ccc(S(=O)(=O)N2CCCC(C)C2)cc1 (configuration not stated)", "> 19.5 µM (inactive)"),
    ("CC(C)=CCc1c(O)cc2c(=O)c3ccc(O)cc3oc2c1O", "6.87 µM"),
    ("COc1ccc(NC(=O)c2nc[nH]c2C(=O)N[C@@H](CC(C)C)C(=O)OC(C)(C)C)cc1", "8.85 µM"),
    ("O=[N+]([O-])c1cccc(-c2csc(N/N=C/c3cccc(O)c3)n2)c1", "3.7 µM"),
    ("FC(F)(F)c1cccc(NC(=S)N(CCCN2CCCC2)Cc2cccn2Cc2ccc(Cl)cc2)c1", "3.51 µM"),
    ("CCC1=NN(C(=O)c2ccc(Cl)cc2)C(O)(c2ccc(C)cc2)C1 (configuration not stated)", "7.99 µM"),
    ("Cn1nc([N+](=O)[O-])c(C(C#N)c2ccccn2)c(Cl)c1=O (configuration not stated)", "15.3 µM"),
    ("CCCC(=O)Nc1nc2ccc(NC(=O)c3c(F)c(F)c(OC)c(F)c3F)cc2s1", "1.56 µM"),
    ("Cc1ccc(S(=O)(=O)Nc2ccc(NC(=O)Nc3cccc(C(F)(F)F)c3)cc2)cc1", "2.51 µM"),
    ("N#Cc1c(NC(=O)Cn2c(=O)oc3ccccc32)oc(-c2ccccc2)c1-c1ccccc1", "4.24 µM"),
    ("CCN1CCN(c2ccc(NC(=O)CCc3c(C)nc4c(-c5ccc(F)cc5)c(C)nn4c3C)cc2)CC1", "5.22 µM"),
    ("CC(=O)Nc1ccc(SCC(=O)c2cc(C)n(Cc3cccs3)c2C)cc1", "4.66 µM"),
    ("O=C(c1cc(-c2cccc(O)c2)on1)N1CCN(C(c2ccccc2)c2ccccc2)CC1", "3.11 µM"),
    ("CCN(CC)S(=O)(=O)c1cccc(C(=O)N/N=C/c2cccc(O)c2O)c1", "7.97 µM"),
    ("O=C(Nc1ccc(Nc2ccccc2)cc1)c1cc([N+](=O)[O-])ccc1Cl", "10.6 µM"),
    ("COc1ccccc1/C=C/C1(C(=O)NC2CCCC2)CC(=O)N1c1ccc(F)cc1 (configuration not stated)", "10.1 µM"),
    ("O=C(Nc1ccon1)c1nc[nH]c1C(=O)NCc1ccccc1", "1.77 µM"),
    ("c1ccc(CN2CCN(c3nc(NCc4ccco4)c4ccccc4n3)CC2)cc1", "4.22 µM"),
    ("CC1=C(C(=O)OC2CCCCCCC2)C(c2cc3c(cc2Br)OCO3)CC(=O)N1 (configuration not stated)", "2.57 µM"),
    ("COc1cccc(-c2sc3ccccc3c2-c2ccc(OCCN3CCCC3)cc2)c1", "2.81 µM"),
    ("CCN1CCN(c2cc(C)c3cc(NC(=S)N4CCN(c5ccc(F)cc5)CC4)ccc3n2)CC1", "4.67 µM"),
    ("Cc1cc2c(cc1C)CSC(c1c(O)ccc3ccccc13)SC2", "3.12 µM"),
    ("Cc1ccc(-c2cc(C(=O)N/N=C/c3ccccc3O)n[nH]2)o1", "10.2 µM"),
    ("COc1c(OC(C)=O)ccc(/C=C/c2ccc3cccc(OCc4ccccc4)c3n2)c1[N+](=O)[O-]", "3.37 µM"),
    ("CC(C)(Sc1ccc(CCN(CCCCC2CCCCC2)C(=O)NC2CCCCC2)cc1)C(=O)O", "5.57 µM"),
    ("CC1=NN(c2ccccc2)C(=O)/C1=C\\C=C\\c1ccccc1", "3.55 µM"),
]

----------
Entries annotated with measured AC50
# Tested on: HMLE_sh_eGFP viability, CellTiter-Glo luminescence, 72 h
# assay_details: cytotoxicity in HMLE control line with eGFP shRNA, dose response, counter-screen for HMLE_sh_ECad selective toxicity project, cell-based, HMLE_sh_eGFP, luminescence (AID 463074);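 also: counterscreen control line to flag general toxicity for the HMLE_sh_ECad screen; potency for loss of viability as luminescence drops below DMSO wells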
observation_type: AC50

# compound, assay_value
rows = [
    ("O=C1c2cc(Br)ccc2N(Cc2ccc(Br)cc2)S(=O)(=O)C1c1cc(Cl)c(Cl)cc1[N+](=O)[O-] (configuration not stated)", "3.07 µM"),
    ("COc1cc(NC(=O)Nc2cccc(Cl)c2)c(OC)cc1NC(=O)CN1CCCCC1", "4.3 µM"),
    ("COC(=O)c1c(NC(=O)c2ccc(C)c(S(=O)(=O)Nc3ccccc3C)c2)sc2c1CCCC2", "1.31 µM"),
    ("CC[C@H](C)[C@H]1O[C@]2(CC[C@@H]1C)C[C@@H]1C[C@@H](CC=C(C)[C@@H](O[C@H]3C[C@H](OC)[C@@H](O[C@H]4C[C@H](OC)[C@@H](O)[C@H](C)O4)[C@H](C)O3)[C@@H](C)C=CC=C3CO[C@@H]4[C@H](O)C(C)=C[C@@H](C(=O)O1)[C@]34O)O2", "1.78 µM"),
    ("CC(C)n1cnc2c(NCc3ccccc3)cc(N[C@H](C)CO)cc21", "7.36 µM"),
    ("C=CCC[C@@H](Cc1ccc(F)cc1)C(=O)OC[C@@H](Cc1c[nH]c2ccccc12)NC(=O)[C@@H](CC=C)CC(=O)N(CCO)Cc1ccccc1", "7.13 µM"),
    ("C/C(=N\\N=C(/N)SC1CC(=O)N(c2ccc(Cl)c(Cl)c2)C1=O)c1cccs1 (configuration not stated)", "7.3 µM"),
]

----------
# Tested on: HMLE_sh_eGFP viability, CellTiter-Glo luminescence, 72 h
# assay_details: cytotoxicity in HMLE control line with eGFP shRNA, dose response, counter-screen for HMLE_sh_ECad selective toxicity project, cell-based, HMLE_sh_eGFP, luminescence (AID 463074);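 also: counterscreen control line to flag general toxicity for the HMLE_sh_ECad screen; potency for loss of viability as luminescence drops below DMSO wells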
Readings of AC50 for the listed molecules

# molecule, target_of_assay, AC50
data = [
    ("COc1ccc(O)c(/C=N/Nc2nc(Nc3ccccc3)nc(-n3nc(C)cc3C)n2)c1", "HMLE_sh_eGFP viability, CellTiter-Glo luminescence, 72 h", "3.52 µM"),
    ("CCOC(=O)c1c(NC(NC(=O)C(C)C)C(Cl)(Cl)Cl)sc2c1CCC2 (stereo not given)", "HMLE_sh_eGFP viability, CellTiter-Glo luminescence, 72 h", "7.47 µM"),
    ("Cc1ccc(C(=O)Nc2nc(C)c(C(=O)Nc3ccc4c(c3)CCC4)s2)cc1", "HMLE_sh_eGFP viability, CellTiter-Glo luminescence, 72 h", "18.8 µM"),
    ("Cc1nn(Cc2ccc(Cl)cc2)c(C)c1NC(=O)c1cc(-c2ccc3c(c2)OCO3)on1", "HMLE_sh_eGFP viability, CellTiter-Glo luminescence, 72 h", "1.17 µM"),
    ("O=c1c2ccccc2nc(/C=C/c2ccccc2F)n1-c1ccccc1O", "HMLE_sh_eGFP viability, CellTiter-Glo luminescence, 72 h", "6.44 µM"),
    ("CCCCCCSc1cc(-c2nc3cc(C)ccn3c2NCCCC)ccc1OC", "HMLE_sh_eGFP viability, CellTiter-Glo luminescence, 72 h", "8.88 µM"),
    ("COc1ccc(C2=NN(C(=O)COC(=O)c3ccc(S(C)(=O)=O)c([N+](=O)[O-])c3)C(c3ccco3)C2)cc1 (stereo not given)", "HMLE_sh_eGFP viability, CellTiter-Glo luminescence, 72 h", "3.84 µM"),
    ("CCCOC(=O)c1ccc(Oc2c(-c3ccc(OCC)cc3O)n[nH]c2C)cc1", "HMLE_sh_eGFP viability, CellTiter-Glo luminescence, 72 h", "4.06 µM"),
    ("COc1cc(OC)cc(-c2cc3ccc(OC)cc3cn2)c1", "HMLE_sh_eGFP viability, CellTiter-Glo luminescence, 72 h", "5.43 µM"),
    ("Cc1cc(C)c(C)c(S(=O)(=O)N2CCN(c3ccc(O)cc3)CC2)c1C", "HMLE_sh_eGFP viability, CellTiter-Glo luminescence, 72 h", "10.7 µM"),
]
